experiment: Inhibition of Hh receptor (unknown origin) expressed in SAG-stimulated mouse NIH3T3 cells incubated for 24 hrs by Gli-luciferase reporter gene assay; assay type: cell-based; conditions: NIH3T3, 24 h
REPORTED_METRIC: IC50 (nM)

# MOLECULE, REPORTED_METRIC, MEASUREMENT
records = [
    ("CN1CCN(C(=O)c2cc3c(s2)CCN(c2cccc(-c4nc5ccccc5n4C)c2)C3)CC1", "IC50", 170),
]

(A) Cn1c(-c2cccc(N3CCc4sc(C(=O)N5CCN(c6ccc(F)cc6)CC5)cc4C3)c2)nc2ccccc21
(B) Cn1c(-c2cccc(N3CCc4sc(C(=O)N5CCN(c6cccc(C(F)(F)F)c6)CC5)cc4C3)c2)nc2ccccc21
Challenge: Endpoint returns the identifier whose IC50 is numerically larger, either A or B . Indicate your choice by writing its label.
Response given: B
(B: 1760 nM, A: 320 nM)

* * *

assay: Inhibition of Hh receptor (unknown origin) expressed in SAG-stimulated mouse NIH3T3 cells incubated for 24 hrs by Gli-luciferase reporter gene assay; type: cell-based; details: NIH3T3, 24 h
pIC50: −log10 of the molar value.
REPORTED_METRIC: pIC50

# COMPOUND, MEASUREMENT
rows = [
    ("Cn1c(-c2cc(N3CCc4sc(C(=O)N5CCN(S(C)(=O)=O)CC5)cc4C3)ccc2Cl)nc2ccccc21", 6.62),
    ("Cn1c(-c2cc(N3CCc4sc(C(=O)N5CCCC5)cc4C3)ccc2Cl)nc2ccccc21", 6.66),
    ("COc1cccc(NC(=O)c2cc3c(s2)CCN(c2cccc(-c4nc5ccccc5n4C)c2)C3)c1", 6.18),
    ("COc1ccccc1N1CCN(C(=O)c2cc3c(s2)CCN(c2cccc(-c4nc5ccccc5n4C)c2)C3)CC1", 5.63),
    ("CN1CCN(C(=O)c2cc3c(s2)CCN(c2ccc(Cl)c(-c4nc5ccccc5n4C)c2)C3)CC1", 6.89),
    ("CC1CCCCN1C(=O)c1cc2c(s1)CCN(c1cccc(-c3nc4ccccc4n3C)c1)C2 (stereo not drawn)", 6.48),
]

(P) Cn1c(-c2cccc(N3CCc4sc(C(=O)N5CCN(S(C)(=O)=O)CC5)cc4C3)c2)nc2ccccc21
(Q) Cn1c(-c2cccc(N3CCc4sc(C(=O)Nc5ccccc5)cc4C3)c2)nc2ccccc21
(R) CN(C)C(=O)c1cc2c(s1)CCN(c1cccc(-c3nc4ccccc4n3C)c1)C2
Challenge: Please put the entries in order of rising pIC50. Rank them, then answer with their labels in that order.
Response given: R, Q, P
(R: 5.81, Q: 6.07, P: 6.66)

* * *

biological target: Protein smoothened (Homo sapiens, UniProt Q99835); assay: Displacement of BODIPY-cyclopamine from human Smo expressed in HEK293 cells incubated for 3 hrs by fluorescence competitive displacement assay
Sequence (Q99835 whole entry): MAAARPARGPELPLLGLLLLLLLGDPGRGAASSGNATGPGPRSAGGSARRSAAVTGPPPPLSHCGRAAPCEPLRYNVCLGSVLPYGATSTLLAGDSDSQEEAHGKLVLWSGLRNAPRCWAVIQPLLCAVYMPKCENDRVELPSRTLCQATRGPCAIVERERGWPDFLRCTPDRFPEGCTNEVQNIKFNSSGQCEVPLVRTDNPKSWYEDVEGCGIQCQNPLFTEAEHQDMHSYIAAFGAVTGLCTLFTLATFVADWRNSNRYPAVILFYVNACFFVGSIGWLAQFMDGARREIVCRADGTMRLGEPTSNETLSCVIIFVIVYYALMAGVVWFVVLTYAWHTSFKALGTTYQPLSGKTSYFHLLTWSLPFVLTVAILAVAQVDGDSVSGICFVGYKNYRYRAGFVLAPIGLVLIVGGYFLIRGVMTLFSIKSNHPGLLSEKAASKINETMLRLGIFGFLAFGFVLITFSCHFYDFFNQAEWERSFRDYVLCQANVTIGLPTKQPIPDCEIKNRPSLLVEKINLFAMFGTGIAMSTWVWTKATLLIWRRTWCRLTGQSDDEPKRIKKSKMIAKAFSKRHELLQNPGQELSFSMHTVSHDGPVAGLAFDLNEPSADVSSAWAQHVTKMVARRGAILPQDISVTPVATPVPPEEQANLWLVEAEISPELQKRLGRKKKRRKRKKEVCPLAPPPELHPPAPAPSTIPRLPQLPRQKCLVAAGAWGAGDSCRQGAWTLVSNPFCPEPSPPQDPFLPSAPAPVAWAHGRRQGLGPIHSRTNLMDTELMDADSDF
pIC50: −log10 of the molar value.
REPORTED_METRIC: pIC50

Guide cases for pIC50, answers given:
# STRUCTURE_AS_SMILES, REPORTED_METRIC, MEASUREMENT
data = [
    ("CN1CCN(C(=O)c2cc3c(s2)CCN(c2cccc(-c4nc5ccccc5n4C)c2)C3)CC1", "pIC50", 6.49),
    ("Cn1c(-c2cccc(N3CCc4sc(C(=O)N5CCC(O)CC5)cc4C3)c2)nc2ccccc21", "pIC50", 6.37),
    ("Cn1c(-c2cccc(N3CCc4sc(C(=O)N5CCCC5)cc4C3)c2)nc2ccccc21", "pIC50", 6.45),
]

(a) Cn1c(-c2cc(N3CCc4sc(C(=O)N5CCCC5)cc4C3)ccc2Cl)nc2ccccc21
(b) Cn1c(-c2cc(N3CCc4sc(C(=O)Nc5cccnc5)cc4C3)ccc2Cl)nc2ccccc21
(c) Cn1c(-c2cc(N3CCc4sc(C(=O)N5CCN(c6ncccn6)CC5)cc4C3)ccc2Cl)nc2ccccc21
Challenge: Please put the entries in order of rising pIC50. Rank them, then answer with their labels in that order.
Response given: a, c, b
(a: 6.50, c: 7.04, b: 7.25)

(1) Cn1c(-c2cc(N3CCc4sc(C(=O)N5CCN(c6ccc(Cl)c(Cl)c6)CC5)cc4C3)ccc2Cl)nc2ccccc21
(2) Cn1c(-c2cccc(N3CCc4sc(C(=O)N5CCN(c6ccc(Cl)c(Cl)c6)CC5)cc4C3)c2)nc2ccccc21
Challenge: Just tell me: smaller pIC50 value, 1 or 2 ? Indicate your choice by writing its label.
Response given: 2
(2: 6.34, 1: 6.67)
